Kindly supply the reported pIC50 values for the records listed here.
target: Mitogen-activated protein kinase 8 (Homo sapiens); assay: Inhibition of JNK1 (unknown origin)-mediated ATF2 Thr71 phosphorylation by HTRF assay
Sequence (P45983 whole entry): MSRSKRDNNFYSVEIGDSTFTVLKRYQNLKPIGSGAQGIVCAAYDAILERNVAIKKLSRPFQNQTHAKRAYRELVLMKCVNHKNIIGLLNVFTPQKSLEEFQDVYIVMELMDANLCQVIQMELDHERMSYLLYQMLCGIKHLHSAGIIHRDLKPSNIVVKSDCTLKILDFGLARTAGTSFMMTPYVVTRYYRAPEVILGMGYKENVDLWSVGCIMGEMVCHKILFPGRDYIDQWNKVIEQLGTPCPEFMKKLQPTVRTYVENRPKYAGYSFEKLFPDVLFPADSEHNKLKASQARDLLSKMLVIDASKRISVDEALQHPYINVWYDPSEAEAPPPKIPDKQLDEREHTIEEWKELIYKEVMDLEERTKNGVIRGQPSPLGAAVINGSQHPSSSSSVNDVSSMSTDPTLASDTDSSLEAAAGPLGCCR
# pIC50: negative log10 of molar concentration; output just the value

Quick check: pIC50 of COc1cc(NC(=O)c2cccc(-n3ncc4cc(Nc5ccccc5F)ccc43)c2)cc(OC)c1OC ? 7.14

Same for O=C(NCCN1CCOCC1)c1cccc(-n2ncc3cc(Nc4c(Cl)cccc4Cl)ccc32)c1 5.86

Same for O=C(NCCO)c1cccc(-n2ncc3cc(Nc4ccccc4Cl)ccc32)c1 6.10

Same for Cc1cc(NC(=O)c2cccc(-n3ncc4cc(Nc5ccccc5Cl)ccc43)c2)ccc1N1CCOCC1 6.80
